The origin of these recorded values is patent US20140093973A1.

Molecular target: soluble HLA-A*0201 (sHLA-A*0201) (human)
Test: standardized FP competition against 1 nM FITC-P5, 50 ug/mL sHLA-A*0201, excess b2m
measuredQuantity: pIC50
To interpret pIC50, take it as minus log10 of a concentration measured in moles per litre.

Look at this binder and give its reported pIC50. YLLPAIVHI (modifications not checked) […]
6.29
